Source of measurements: PubChem BioAssay (NCI)

System: PC-3 prostate
RUN_DESCRIPTION: NCI tumour cell line growth inhibition, 48 h
Assign log10 of TGI to each entry below.
The figures below represent log10 of TGI, where TGI is stated in µM.

Consider the compound COC(=O)[C@@H](C)C[C@H](Cc1ccc2ccccc2c1)NC(=O)c1csc([C@@H](C[C@H](C(C)C)N(C)C(=O)[C@@H](NC(=O)[C@H]2CCCCN2C)C(C)C)OC(C)=O)n1 and give its measured log10 of TGI.
0.89

How about this compound: O=[N+]([O-])c1cc(Cl)c(Cl)cc1[N+](=O)[O-]
0.60

How about this compound: COc1ccc(CC(C)=C(c2ccc(OCCN3CCCCCC3)cc2)c2ccc(OCCN3CCCCCC3)cc2)cc1
-0.07

How about this compound: N#Cc1c(-c2ccccc2)cc(-c2ccccc2)n(CCCC(=O)NO)c1=O
1.16

How about this compound: CCN(CC)Cc1cc(Nc2c3ccc(Cl)cc3nc3ccc(OC)cc23)ccc1O
1.34

How about this compound: CCCN=Cc1c(O)c(O)c(C(C)C)c2cc(C)c(-c3c(C)cc4c(C(C)C)c(O)c(O)c(C=NCCC)c4c3O)c(O)c12
1.79

* * *

Tested on: MDA-MB-231 breast
RUN_DESCRIPTION: NCI tumour cell line growth inhibition, 48 h
RECORDED_ENDPOINT: TGI (µM)
Please reply with the bare figure in µM and do not write the unit itself.

// lookup TGI | system=MDA-MB-231 breast | key= CCN(CC)Cc1cc(Nc2c3ccc(Cl)cc3nc3ccc(OC)cc23)ccc1O
15.1

How about this molecule: O=C(c1ccc(Cl)cc1)c1no[n+]([O-])c1C(=O)c1ccc(Cl)cc1
26.8

How about this molecule: CC(C)=CCC/C(C)=C/CC/C(C)=C/CC/C(C)=C/CSC[C@H](NC(=O)CCCCCN1CCN(C)CC1)C(=O)NC1CCCCC1
3.84

How about this molecule: CN(CCCCCl)P(=O)(OCC1=CC(=O)c2ccccc2C1=O)OC[C@H]1O[C@@H](n2cc(F)c(=O)[nH]c2=O)C[C@@H]1O (some centres not stated)
19.3

How about this molecule: Oc1ccc(O)c(Cc2ccccc2)c1
46.6

How about this molecule: Nc1nc(N)c(N=Nc2ccccc2)c(-c2ccccc2)n1
30.5

How about this molecule: CC(=O)Nc1ccc(S(=O)(=O)Nc2nc(-c3ccc(Cl)cc3)cc(N3N=C(c4ccc(Br)cc4)CC3c3ccccc3)n2)cc1 (configuration not stated)
28.6

How about this molecule: CN(C)c1cc[n+](/C(NS(=O)(=O)c2cc(C(=O)Nc3ccc(Cl)cc3)c(Cl)cc2[S-])=C(\C#N)C(=O)c2ccccc2)cc1
48.5

How about this molecule: O=C1C(c2c(O)[nH]c3ccc([N+](=O)[O-])cc23)=Nc2ccccc21
91.2

How about this molecule: C=C1C(=O)O[C@H]2[C@H]1CC/C(COC(=O)/C=C/C(=O)NCc1ccc(Cn3c(=O)sn(-c4ccccc4)c3=O)cc1)=C\CC[C@@]1(C)O[C@@H]21
3.98

How about this molecule: CC#CC#C/C=C1/O[C@]2(CCC(OC(=O)CC(C)C)CO2)[C@@H]2O[C@H]12 (some centres not stated)
62.7

How about this molecule: O=C1c2[nH]c3ccccc3c2CCN2CCCCC12 (configuration not stated)
41.3

How about this molecule: CCOC(=O)N1C/C(=C/c2ccc(Cl)cc2)C(=O)/C(=C/c2ccc(Cl)cc2)C1
9.37

How about this molecule: CCOC(=O)/C=C(/C(=O)OCC)n1cc(C)c(=O)n(/C(=C/C(=O)OCC)C(=O)OCC)c1=O
9.01

How about this molecule: COC(=O)[C@@H](C)C[C@H](Cc1ccc2ccccc2c1)NC(=O)c1csc([C@@H](C[C@H](C(C)C)N(C)C(=O)[C@@H](NC(=O)[C@H]2CCCCN2C)C(C)C)OC(C)=O)n1
7.17

How about this molecule: CCC(CC)c1nc(Nc2cccc(OC)c2)c2ccccc2n1
12.9

How about this molecule: c1ccc2cc(C[n+]3ccn(CCCCCCCCCCCCn4cc[n+](Cc5ccc6ccccc6c5)c4)c3)ccc2c1
2.88

* * *

Tested on: MCF7 breast
RUN_DESCRIPTION: NCI tumour cell line growth inhibition, 48 h
Response key: true means TGI >= 20 µM; false means TGI < 20 µM.

hey, is TGI for this one >= 20 µM? O=C(CSc1nc2ccccc2c2ccccc12)c1ccccc1
true

How about this compound: NC1CCCCC1N.Nc1c(N=Nc2ccc(-c3ccc(N=Nc4cc(S(=O)(=O)[O-])c5ccccc5c4N)cc3)cc2)cc(S(=O)(=O)[O-])c2ccccc12.[OH3+].[OH3+].[Pt+4]
true

How about this compound: CC1=C(O)C(=O)C(C2=C(O)C(=O)C(C)=C(O)C2=O)=C(O)C1=O
true

How about this compound: Cc1cc2c(s1)C(N)CC2=O (stereo not given)
true

How about this compound: CCOC(=O)c1csc(NC(=O)CN(C)C)n1
true

How about this compound: O=C(CC1(O)C(=O)Nc2c(Cl)ccc(Cl)c21)c1ccco1 (stereo not given)
true

How about this compound: O=c1c(Cc2c(O)ccc3ccccc23)nnc2sc(-c3nn4c(=O)c(Cc5c(O)ccc6ccccc56)nnc4s3)nn12
true

How about this compound: O=C1Nc2ccccc2/C1=C\c1c(Cl)nc2sccn12
false

How about this compound: CCN(CC)Cc1cc(Nc2c3ccc(Cl)cc3nc3ccc(OC)cc23)ccc1O
false

How about this compound: c1ccc2c(c1)SC1=C(SC(=C3SC4=C(S3)Sc3ccccc3S4)S1)S2
true

How about this compound: CC1=CC(C)(C)[C@H]2O[C@@]3(O)C[C@]4(C)[C@H]5C[C@@](C(C)C)(O[C@H]4c4ccoc4)O[C@H]4[C@]5(C3)O[C@@]1(O)[C@]24O
true

How about this compound: CCCN=Cc1c(O)c(O)c(C(C)C)c2cc(C)c(-c3c(C)cc4c(C(C)C)c(O)c(O)c(C=NCCC)c4c3O)c(O)c12
true

How about this compound: COc1ccc(NC2=NCCO2)c2c1CCCC2
true

How about this compound: CC(=O)Oc1c(-c2ccccc2)oc2ccccc12
false

How about this compound: O=C1C(Cl)=C(N2C(=O)CCC2=O)C(=O)c2ccccc21
true

How about this compound: C/C=C(\C)[C@@H](O)C(=O)O[C@@H]1CC(C(C)(C)O)[C@](C)(CCC(=O)OC)[C@H]2[C@H](OC(=O)[C@H](O)[C@H](C)CC)C[C@]3(C)C(=CC[C@H]3[C@H]3CO[C@H](C=C(C)C)C3)[C@]12C (stereo not given in full)
true

How about this compound: c1cc2c(s1)SSSSS2
true

How about this compound: COc1cc2c(cc1OCCCCCn1c(-c3ccc(OCc4ccccc4)cc3)nc3cc(N4CCOCC4)ccc31)N=C[C@@H]1CCCN1C2=O
false

How about this compound: COc1ccc(/C=C2\Oc3cc(OC(C)=O)ccc3C2=O)cc1
true

* * *

Test system: KM12 colon
RUN_DESCRIPTION: NCI tumour cell line growth inhibition, 48 h
Assign TGI to each entry below.
Please reply with the bare figure in µM and do not write the unit itself.

Consider the compound C/C=C(\C)[C@@H](O)C(=O)O[C@@H]1CC(C(C)(C)O)[C@](C)(CCC(=O)OC)[C@H]2[C@H](OC(=O)[C@H](O)[C@H](C)CC)C[C@]3(C)C(=CC[C@H]3[C@H]3CO[C@H](C=C(C)C)C3)[C@]12C (some centres not stated) and give its measured TGI.
65.3

How about this compound: CCOC(=O)C1C(=O)C=C(c2cc(C)ccc2O)CC1c1cccc(Cl)c1 (configuration not stated)
69

How about this compound: CC1(C)C(N(O)C(=O)Nc2ccc(Cl)cc2)N(c2ccc(Cl)cc2)C(=O)N1CC(=O)N/N=C/C=C/c1ccc([N+](=O)[O-])o1 (configuration not stated)
3.76

* * *

System: LOX IMVI melanoma
RUN_DESCRIPTION: NCI tumour cell line growth inhibition, 48 h
RECORDED_ENDPOINT: TGI

Consider the molecule CN(C)c1cc[n+](/C(NS(=O)(=O)c2cc(C(=O)Nc3ccc(Cl)cc3)c(Cl)cc2[S-])=C(\C#N)C(=O)c2ccccc2)cc1 and give its measured TGI.
> 100 µM

How about this molecule: CCOC(=O)C(/C=N\C(=S)Nc1c(CC)cccc1C(C)(C)C)=C(/O)c1ccccc1
> 100 µM

How about this molecule: COC1/C=C\C=C(/C)C(=O)NC2=CC(=O)C(N)=C(CC(C)CC(OC)C(O)C(C)C=C(C)C1OC(N)=O)C2=O (centres undefined)
1.55 µM

How about this molecule: Cc1c2c(cc3c1[nH]c1ccccc13)C(c1ccc(Cl)cc1)=NCC2
11.4 µM

How about this molecule: Clc1ccc(OCc2nn3c(CCCCc4nnc5sc(COc6ccc(Cl)cc6Cl)nn45)nnc3s2)c(Cl)c1
> 100 µM

How about this molecule: Cc1cc2nc(C#N)c(N3CCN(c4ccc([N+](=O)[O-])cc4)CC3)nc2cc1C
> 100 µM

How about this molecule: COc1cccc2c1N[S@](=O)S2
> 100 µM

How about this molecule: Cn1ccc(=O)c2c(O)c3ccccc3c(O)c21
> 100 µM

How about this molecule: O=c1c(Cc2c(O)ccc3ccccc23)nnc2sc(-c3nn4c(=O)c(Cc5c(O)ccc6ccccc56)nnc4s3)nn12
> 100 µM
